Data origin: paper PMC11912475

- assay system: GluN1-GluN2D NMDAR subtype (Homo sapiens, UniProt O15399+Q05586)
- Sequence (O15399 28-1336, other chains not shown): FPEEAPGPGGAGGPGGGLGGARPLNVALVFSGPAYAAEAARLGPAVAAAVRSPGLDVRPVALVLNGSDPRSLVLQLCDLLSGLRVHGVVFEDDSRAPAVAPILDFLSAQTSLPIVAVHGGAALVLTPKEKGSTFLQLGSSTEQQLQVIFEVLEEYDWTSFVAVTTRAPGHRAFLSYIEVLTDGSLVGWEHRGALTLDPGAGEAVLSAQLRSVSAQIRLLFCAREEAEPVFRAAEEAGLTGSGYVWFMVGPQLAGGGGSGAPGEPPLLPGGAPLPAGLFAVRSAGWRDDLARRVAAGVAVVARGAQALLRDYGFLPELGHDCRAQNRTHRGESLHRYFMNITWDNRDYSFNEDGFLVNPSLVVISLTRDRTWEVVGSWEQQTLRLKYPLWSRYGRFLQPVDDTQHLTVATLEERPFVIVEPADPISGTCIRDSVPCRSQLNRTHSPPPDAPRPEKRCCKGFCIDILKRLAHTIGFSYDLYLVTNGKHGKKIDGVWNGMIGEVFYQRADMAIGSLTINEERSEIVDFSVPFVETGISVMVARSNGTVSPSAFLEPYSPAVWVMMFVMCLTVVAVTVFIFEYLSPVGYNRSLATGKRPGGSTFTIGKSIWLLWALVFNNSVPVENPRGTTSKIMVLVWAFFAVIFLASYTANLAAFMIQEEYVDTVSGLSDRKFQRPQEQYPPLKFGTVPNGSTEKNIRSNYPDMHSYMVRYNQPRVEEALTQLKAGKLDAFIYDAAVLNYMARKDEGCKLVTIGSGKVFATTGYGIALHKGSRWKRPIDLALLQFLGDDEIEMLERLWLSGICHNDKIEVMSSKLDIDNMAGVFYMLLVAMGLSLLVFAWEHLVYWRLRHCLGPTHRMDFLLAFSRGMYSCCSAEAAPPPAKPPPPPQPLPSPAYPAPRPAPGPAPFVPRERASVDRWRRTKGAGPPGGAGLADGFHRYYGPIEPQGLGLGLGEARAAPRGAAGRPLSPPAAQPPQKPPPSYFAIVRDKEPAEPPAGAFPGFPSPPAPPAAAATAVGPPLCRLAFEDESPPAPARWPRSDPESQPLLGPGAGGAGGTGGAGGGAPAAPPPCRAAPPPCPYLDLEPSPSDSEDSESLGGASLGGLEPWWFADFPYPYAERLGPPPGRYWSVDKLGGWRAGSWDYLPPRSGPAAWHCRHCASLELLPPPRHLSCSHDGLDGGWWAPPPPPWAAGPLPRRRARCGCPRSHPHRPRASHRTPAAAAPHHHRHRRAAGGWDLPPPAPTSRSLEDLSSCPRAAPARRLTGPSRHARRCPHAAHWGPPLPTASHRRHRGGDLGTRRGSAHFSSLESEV
- measurement description: FLIPR/Ca2+ assay, NMDAR GluN1-GluN2D subtype in CHO cells
- Format: cell-based
measured endpoint: IC50

INSERT INTO measurements (molecule, experimental_value) VALUES
  ('CCC1=[N+](C)[C@@H](C)CC1(c1ccccc1)c1ccccc1 [(S)-EDDP]', '> 100 µM');

---

- assay system: Serotonin transporter SERT (Homo sapiens, UniProt P31645)
- Construct: host or cells: HEK-293
- Sequence (P31645 whole entry): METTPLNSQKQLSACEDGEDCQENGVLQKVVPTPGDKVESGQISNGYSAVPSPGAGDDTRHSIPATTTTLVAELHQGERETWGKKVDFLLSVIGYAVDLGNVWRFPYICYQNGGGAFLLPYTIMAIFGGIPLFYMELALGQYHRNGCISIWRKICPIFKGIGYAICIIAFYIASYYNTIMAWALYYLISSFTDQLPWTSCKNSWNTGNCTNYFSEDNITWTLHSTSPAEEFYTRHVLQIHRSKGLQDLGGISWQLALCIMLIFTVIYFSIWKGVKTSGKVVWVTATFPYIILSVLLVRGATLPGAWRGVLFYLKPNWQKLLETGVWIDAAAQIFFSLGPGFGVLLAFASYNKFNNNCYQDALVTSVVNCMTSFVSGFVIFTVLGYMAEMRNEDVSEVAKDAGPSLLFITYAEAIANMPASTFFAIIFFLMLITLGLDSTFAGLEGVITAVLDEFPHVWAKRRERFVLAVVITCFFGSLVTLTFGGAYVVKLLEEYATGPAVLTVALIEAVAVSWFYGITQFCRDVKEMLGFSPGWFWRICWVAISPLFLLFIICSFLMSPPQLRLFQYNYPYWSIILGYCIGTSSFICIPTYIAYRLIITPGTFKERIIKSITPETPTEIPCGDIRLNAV
- measurement description: Radioligand displacement binding assay, [3H]paroxetine, SERT
- condition summary: 10 μM
The entries below come with measured inhibition at 10 µM values attached.
measured endpoint: inhibition at 10 µM (%)

INSERT INTO results (molecule, experimental_value) VALUES
  ('CC[C@H](O)C(C[C@H](C)N)(c1ccccc1)c1ccccc1', 82),
  ('CC[C@@H](O)C(C[C@H](C)NC)(c1ccccc1)c1ccccc1', 45),
  ('CC[C@H](O)C(C[C@@H](C)N)(c1ccccc1)c1ccccc1', 36),
  ('CCC(=O)C(C[C@H](C)N(C)C)(c1ccccc1)c1ccccc1 [(S)-methadone, reference compound]', 74),
  ('CC[C@@H](O)C(C[C@H](C)N)(c1ccccc1)c1ccccc1', 65),
  ('CCC1=N[C@H](C)CC1(c1ccccc1)c1ccccc1 [(R)-EMDP]', 7),
  ('CC[C@H](O)C(C[C@@H](C)NC)(c1ccccc1)c1ccccc1', 61);

---

The entries below come with measured inhibition at 10 µM values attached.
- assay system: Serotonin 5-HT7 (Homo sapiens)
- Construct: host or cells: CHO-K1
- Sequence (P34969 whole entry): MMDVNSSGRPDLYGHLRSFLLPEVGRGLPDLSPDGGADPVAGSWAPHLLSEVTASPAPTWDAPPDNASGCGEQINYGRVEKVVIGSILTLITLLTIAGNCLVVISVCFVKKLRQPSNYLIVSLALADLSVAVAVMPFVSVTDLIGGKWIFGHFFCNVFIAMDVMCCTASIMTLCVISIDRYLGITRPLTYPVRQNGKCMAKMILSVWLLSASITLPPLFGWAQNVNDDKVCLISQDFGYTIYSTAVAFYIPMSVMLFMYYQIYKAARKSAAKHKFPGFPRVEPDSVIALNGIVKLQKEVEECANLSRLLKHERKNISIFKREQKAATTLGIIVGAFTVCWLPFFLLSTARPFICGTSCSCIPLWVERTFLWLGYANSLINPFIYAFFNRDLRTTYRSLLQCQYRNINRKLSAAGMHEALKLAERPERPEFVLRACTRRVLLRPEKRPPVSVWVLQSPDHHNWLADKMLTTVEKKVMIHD
- measurement description: Radioligand displacement binding assay, [3H]LSD, 5-HT7
- condition summary: 10 μM
measured endpoint: inhibition at 10 µM

INSERT INTO assay_data (molecule, experimental_value) VALUES
  ('CC[C@@H](O)C(C[C@@H](C)NC)(c1ccccc1)c1ccccc1', '5%'),
  ('CCC1=N[C@H](C)CC1(c1ccccc1)c1ccccc1 [(R)-EMDP]', '8%'),
  ('CC[C@@H](O)C(C[C@@H](C)N)(c1ccccc1)c1ccccc1', '8%'),
  ('CC[C@H](O)C(C[C@@H](C)N)(c1ccccc1)c1ccccc1', '5%'),
  ('CC[C@H](O)C(C[C@H](C)NC)(c1ccccc1)c1ccccc1', '23%'),
  ('CC[C@H](O)C(C[C@H](C)N)(c1ccccc1)c1ccccc1', '4%'),
  ('CCC(=O)C(C[C@H](C)N(C)C)(c1ccccc1)c1ccccc1 [(S)-methadone, reference compound]', '58%');

---

- assay system: Serotonin transporter SERT (Homo sapiens)
- Construct: host or cells: HEK-293
- measurement description: Radioligand displacement binding assay, [3H]paroxetine, SERT
- condition summary: 1 μM
Outcome label depends on inhibition at 1 µM relative to 10%: at/above gives Criterion met, below gives Criterion not met.

INSERT INTO assay_data (molecule, label_value) VALUES
  ('CC[C@H](O)C(C[C@H](C)N)(c1ccccc1)c1ccccc1', 'Criterion met'),
  ('CC[C@@H](O)C(C[C@@H](C)N)(c1ccccc1)c1ccccc1', 'Criterion not met'),
  ('CCC(=O)C(C[C@H](C)N(C)C)(c1ccccc1)c1ccccc1 [(S)-methadone, reference compound]', 'Criterion met'),
  ('CC[C@@H](O)C(C[C@@H](C)NC)(c1ccccc1)c1ccccc1', 'Criterion met'),
  ('CC[C@@H](O)C(C[C@H](C)N)(c1ccccc1)c1ccccc1', 'Criterion met'),
  ('CC[C@H](O)C(C[C@H](C)NC)(c1ccccc1)c1ccccc1', 'Criterion not met'),
  ('CC[C@@H](O)C(C[C@H](C)NC)(c1ccccc1)c1ccccc1', 'Criterion met'),
  ('CC[C@H](O)C(C[C@@H](C)N)(c1ccccc1)c1ccccc1', 'Criterion met'),
  ('CCC1=N[C@H](C)CC1(c1ccccc1)c1ccccc1 [(R)-EMDP]', 'Criterion not met');

---

The entries below come with measured inhibition at 3 µM values attached.
- assay system: Serotonin 5-HT2C (Homo sapiens, UniProt P28335)
- Construct: host or cells: CHO-K1
- measurement description: Radioligand displacement binding assay, [3H]mesulergine, 5-HT2C
- condition summary: 3 μM
measured endpoint: inhibition at 3 µM

INSERT INTO measurements (compound, assay_system, measured_endpoint, experimental_value) VALUES
  ('CCC1=N[C@H](C)CC1(c1ccccc1)c1ccccc1 [(R)-EMDP]', 'Serotonin 5-HT2C (Homo sapiens, UniProt P28335)', 'inhibition at 3 µM', '7%'),
  ('CC[C@@H](O)C(C[C@H](C)N)(c1ccccc1)c1ccccc1', 'Serotonin 5-HT2C (Homo sapiens, UniProt P28335)', 'inhibition at 3 µM', '-1%'),
  ('CC[C@@H](O)C(C[C@@H](C)NC)(c1ccccc1)c1ccccc1', 'Serotonin 5-HT2C (Homo sapiens, UniProt P28335)', 'inhibition at 3 µM', '16%');

---

- assay system: Serotonin 5-HT2C (Homo sapiens)
- Construct: host or cells: CHO-K1
- Sequence (P28335 33-458): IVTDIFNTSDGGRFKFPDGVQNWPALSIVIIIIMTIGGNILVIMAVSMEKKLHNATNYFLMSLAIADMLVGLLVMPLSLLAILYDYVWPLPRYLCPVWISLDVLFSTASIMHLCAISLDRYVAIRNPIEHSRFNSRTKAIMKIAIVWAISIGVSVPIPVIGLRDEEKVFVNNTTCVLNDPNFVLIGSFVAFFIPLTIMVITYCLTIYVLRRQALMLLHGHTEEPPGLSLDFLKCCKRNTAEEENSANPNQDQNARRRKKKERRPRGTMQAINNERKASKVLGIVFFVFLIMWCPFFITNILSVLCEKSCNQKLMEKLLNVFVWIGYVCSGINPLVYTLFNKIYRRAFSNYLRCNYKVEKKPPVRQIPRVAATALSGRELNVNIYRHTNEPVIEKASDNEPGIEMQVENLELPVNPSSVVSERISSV
- measurement description: Radioligand displacement binding assay, [3H]mesulergine, 5-HT2C
- condition summary: 0.3 μM
measured endpoint: inhibition at 0.3 µM

INSERT INTO results (compound, assay_system, experimental_value) VALUES
  ('CC[C@@H](O)C(C[C@H](C)NC)(c1ccccc1)c1ccccc1', 'Serotonin 5-HT2C (Homo sapiens)', '-4%'),
  ('CC[C@H](O)C(C[C@@H](C)N)(c1ccccc1)c1ccccc1', 'Serotonin 5-HT2C (Homo sapiens)', '9%'),
  ('CC[C@@H](O)C(C[C@@H](C)N)(c1ccccc1)c1ccccc1', 'Serotonin 5-HT2C (Homo sapiens)', '7%'),
  ('CC[C@H](O)C(C[C@H](C)NC)(c1ccccc1)c1ccccc1', 'Serotonin 5-HT2C (Homo sapiens)', '5%'),
  ('CC[C@@H](O)C(C[C@H](C)N)(c1ccccc1)c1ccccc1', 'Serotonin 5-HT2C (Homo sapiens)', '3%'),
  ('CC[C@H](O)C(C[C@@H](C)NC)(c1ccccc1)c1ccccc1', 'Serotonin 5-HT2C (Homo sapiens)', '15%'),
  ('CCC(=O)C(C[C@H](C)N(C)C)(c1ccccc1)c1ccccc1 [(S)-methadone, reference compound]', 'Serotonin 5-HT2C (Homo sapiens)', '30%'),
  ('CC[C@H](O)C(C[C@H](C)N)(c1ccccc1)c1ccccc1', 'Serotonin 5-HT2C (Homo sapiens)', '1%'),
  ('CC[C@@H](O)C(C[C@@H](C)NC)(c1ccccc1)c1ccccc1', 'Serotonin 5-HT2C (Homo sapiens)', '18%'),
  ('CCC1=N[C@H](C)CC1(c1ccccc1)c1ccccc1 [(R)-EMDP]', 'Serotonin 5-HT2C (Homo sapiens)', '2%');

---

- assay system: μ opioid receptor (MOP) (Homo sapiens, UniProt P35372)
- Construct: host or cells: CHO-K1
- Sequence (P35372 whole entry): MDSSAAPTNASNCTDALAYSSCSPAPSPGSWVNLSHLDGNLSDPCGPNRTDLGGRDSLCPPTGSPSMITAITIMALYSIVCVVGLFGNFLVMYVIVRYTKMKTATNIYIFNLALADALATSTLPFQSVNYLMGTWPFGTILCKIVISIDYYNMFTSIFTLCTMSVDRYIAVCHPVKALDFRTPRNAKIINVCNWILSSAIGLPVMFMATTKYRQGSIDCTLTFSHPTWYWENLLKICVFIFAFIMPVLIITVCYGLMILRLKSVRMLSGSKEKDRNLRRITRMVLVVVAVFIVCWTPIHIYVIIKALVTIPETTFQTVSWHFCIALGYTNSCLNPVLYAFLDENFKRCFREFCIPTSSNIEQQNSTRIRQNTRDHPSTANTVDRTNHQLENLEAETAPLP
- measurement description: biochemical
- Format: binding
- condition summary: 3 μM; read-out: % inhibition of binding, MOP
measured endpoint: inhibition at 3 µM (%)

INSERT INTO measurements (compound, experimental_value) VALUES
  ('CC[C@H](O)C(C[C@@H](C)NC)(c1ccccc1)c1ccccc1', 26),
  ('CC[C@H](O)C(C[C@H](C)NC)(c1ccccc1)c1ccccc1', 95),
  ('CC[C@@H](O)C(C[C@@H](C)N)(c1ccccc1)c1ccccc1', 9),
  ('CC[C@H](O)C(C[C@H](C)N)(c1ccccc1)c1ccccc1', 84),
  ('CCC1=N[C@H](C)CC1(c1ccccc1)c1ccccc1 [(R)-EMDP]', 8),
  ('CC[C@@H](O)C(C[C@@H](C)NC)(c1ccccc1)c1ccccc1', 11),
  ('CC[C@@H](O)C(C[C@H](C)NC)(c1ccccc1)c1ccccc1', 29),
  ('CC[C@@H](O)C(C[C@H](C)N)(c1ccccc1)c1ccccc1', 26),
  ('CC[C@H](O)C(C[C@@H](C)N)(c1ccccc1)c1ccccc1', 23);
